So I've got a bunch of compounds here, and I need their Ki values.
target: recombinant SmCB1 (Schistosoma mansoni, UniProt Q8MNY2, T185A/T300A); assay: SmCB1 kinetic inhibition assay with fluorogenic substrate Cbz-Phe-Arg-AMC; type: biochemical; conditions: SmCB1 inhibition Ki, kinetic activity assay, substrate Cbz-Phe-Arg-AMC, pH 5.5, 37 °C
Sequence (Q8MNY2 87-340 T185A/T300A): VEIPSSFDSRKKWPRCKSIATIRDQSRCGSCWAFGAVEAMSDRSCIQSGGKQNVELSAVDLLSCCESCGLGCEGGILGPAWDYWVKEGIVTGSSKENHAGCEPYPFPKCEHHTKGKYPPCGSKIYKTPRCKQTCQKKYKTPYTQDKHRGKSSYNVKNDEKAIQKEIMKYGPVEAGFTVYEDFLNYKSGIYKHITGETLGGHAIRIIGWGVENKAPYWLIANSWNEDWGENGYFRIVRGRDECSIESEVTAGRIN
// units = nM; emit number, no label

I have this compound here, CC(C)CC(NC(=O)NCc1ccccc1)C(=O)N(C)N(C)C#N (stereo not drawn) [Compound 3a] , and I need its recorded Ki.
6.1

Do the same for CC(C)C[C@H](NC(=O)c1ccc(-c2noc(-c3cccs3)n2)cc1)C(=O)N(C)N(C)C#N [Compound 5a] please
4.8

CN(C(=O)[C@H](Cc1ccccc1)NC(=O)OCc1ccccc1)N(C#N)CCc1ccccc1 [Compound 8a] ?
4.8

Next record, please: CN(C#N)N(C)C(=O)C1(NC(=O)c2ccc(-c3noc(-c4cccs4)n3)cc2)CCCCC1 [Compound 7a]
229

Moving on to the next compound: COc1ccc(C[C@H](NC(=O)OCc2ccccc2)C(=O)N(C)N(C)C#N)cc1 [Compound 13a]
80.6

Further, for CC(C)C[C@@H](C(=O)N(C)N(C)C#N)N(C)C(=O)c1ccc(-c2noc(-c3cccs3)n2)cc1 [Compound 6a] ?
1540

Next up: CCC(C)C(NC(=O)OCc1ccccc1)C(=O)N(C)N(C)C#N (stereo not drawn) [Compound 12a]
71.7

----------
test system: S. mansoni newly transformed schistosomula (NTS); experiment: Schistosome phenotypic assay; assay type: cell-based, Schistosoma mansoni; details: 10 µM inhibitor
Value kind: Descriptors Day 2 (phenotypic changes)

compound=CN(C#N)N(C)C(=O)C1(NC(=O)c2ccc(-c3noc(-c4cccs4)n3)cc2)CCCCC1 observed_measurement=Deg
compound=N#CCNC(=O)[C@H](CC1CCCCC1)NC(=O)c1ccc(-c2noc(-c3cccs3)n2)cc1 observed_measurement="R, S"
compound="CC(C)C[C@H](NC(=O)Nc1ccccc1)C(=O)N(C)N(C)C#N [Compound 18a]" observed_measurement=Deg
compound=CC(C)C[C@H](NC(=O)c1ccc(-c2noc(-c3cccs3)n2)cc1)C(=O)NCC#N observed_measurement=R

----------
Give measured viability at 72 h, 10 µM for each item. Keep answers brief.
assay: Cytotoxicity, XTT test, HepG2; assay type: cell-based; conditions: human; HepG2, 10 µM, % viability vs. untreated cells; read-out: Cell line viability after 72 h
Output spec: scalar in %, unitless text.

Recorded viability at 72 h, 10 µM of CN(C(=O)[C@H](Cc1ccccc1)NC(=O)OCc1ccccc1)N(C#N)CCc1ccccc1 , please.
83

Same lookup for CCCCCN(C#N)N(C)C(=O)[C@H](Cc1ccccc1)NC(=O)OCc1ccccc1 , please.
78

Another compound to look at: CC(C)C[C@H](NC(=O)c1ccc(-c2noc(-c3cccs3)n2)cc1)C(=O)N(C)N(C)C#N
101

Next record, please: CC(C)CC(NC(=O)NCc1ccccc1)C(=O)N(C)N(C)C#N (centres unmarked)
83

How about this compound: CN(C#N)N(C)C(=O)[C@H](CC1CCCCC1)NC(=O)OCc1ccccc1 [Compound 11a]
109

----------
target: recombinant SmCB1 (Schistosoma mansoni, UniProt Q8MNY2, T185A/T300A); assay: SmCB1 kinetic inhibition assay with fluorogenic substrate Cbz-Phe-Arg-AMC; type: biochemical; conditions: SmCB1 inhibition Ki, Table S2, carbadipeptide nitriles; substrate Cbz-Phe-Arg-AMC
pKi: −log10 of the molar value.
Value kind: pKi

Item CC(C)C[C@@H](C(=O)NCC#N)N(C)C(=O)c1ccc(-c2noc(-c3cccs3)n2)cc1 [Compound 6c] has what recorded pKi?
< 5.00

Proceed to CC(C)C[C@H](NC(=O)c1ccc(-c2noc(-c3cccs3)n2)cc1)C(=O)NCC#N [Compound 5c]
5.91

Consider next the molecule CC(C)C[C@H](NC(=O)Nc1ccc(-c2noc(-c3cccs3)n2)cc1)C(=O)NCC#N [Compound 4c] in the same way.
5.18

Now consider N#CCNC(=O)CNC(=O)OCc1ccccc1 [Compound 1c] and answer again.
< 5.00

Request: C[C@@H](C#N)NC(=O)[C@H](Cc1ccccc1)NC(=O)OCc1ccccc1 [Compound 8c]
< 5.00

Could you do the same for CN(CC#N)C(=O)[C@H](Cc1ccccc1)NC(=O)OCc1ccccc1 [Compound 9c] , please?
< 5.00

What would you report for N#CCNC(=O)C1(NC(=O)c2ccc(-c3noc(-c4cccs4)n3)cc2)CCCCC1 [Compound 7c] ?
< 5.00

Now consider N#CCNC(=O)[C@H](Cc1ccccc1)NC(=O)OCc1ccccc1 [Compound 2c] and answer again.
5.53

Again, but for CC(C)C[C@H](NC(=O)NCc1ccccc1)C(=O)NCC#N [Compound 3c]
< 5.00

What do we get for C[C@@H](C#N)N(C)C(=O)[C@H](Cc1ccccc1)NC(=O)OCc1ccccc1 [Compound 10c] ?
< 5.00

----------
molecular target: recombinant SmCB1 (Schistosoma mansoni, UniProt Q8MNY2, T185A/T300A); assay: SmCB1 kinetic inhibition assay with fluorogenic substrate Cbz-Phe-Arg-AMC; assay type: biochemical; details: SmCB1 inhibition Ki, kinetic activity assay, substrate Cbz-Phe-Arg-AMC, pH 5.5, 37 °C
pKi: −log10 of the molar value.
The threshold is inclusive: pKi of exactly 7 counts as True; values below receive False.

Check this compound for pKi at or above 7: N#CCNC(=O)[C@H](Cc1ccccc1)NC(=O)OCc1ccccc1 [Compound 2c]
False

// same read-out, input: CC(C)C[C@@H](C(=O)NCC#N)N(C)C(=O)c1ccc(-c2noc(-c3cccs3)n2)cc1 [Compound 6c]
False

# repeat for CN(C(=O)[C@H](Cc1ccccc1)NC(=O)OCc1ccccc1)N(C#N)Cc1ccccc1 [Compound 10a]
True

Param item: CC(C)C[C@H](NC(=O)NCc1ccc(-c2noc(-c3cccs3)n2)cc1)C(=O)N(C)N(C)C#N [Compound 17a]
True

Also need CC(C)C[C@H](NC(=O)c1ccc(-c2noc(-c3cccs3)n2)cc1)C(=O)NCC#N [Compound 5c] , thanks.
False

Now try Cc1nc(-c2ccc(CNC(=O)N[C@@H](CC(C)C)C(=O)N(C)N(C)C#N)cc2)no1 [Compound 16a] .
True

Field entry: CCCCCN(C#N)N(C)C(=O)[C@H](Cc1ccccc1)NC(=O)OCc1ccccc1 [Compound 9a]
True

Okay, and N#CCNC(=O)C1(NC(=O)c2ccc(-c3noc(-c4cccs4)n3)cc2)CCCCC1 [Compound 7c] ?
False

Continue with C[C@H](NC(=O)OCc1ccccc1)C(=O)N(C)N(C)C#N [Compound 15a]
False

CC(C)C[C@H](NC(=O)NCc1ccccc1)C(=O)NCC#N [Compound 3c] , same question.
False

Now consider CN(C#N)N(C)C(=O)[C@H](Cc1ccccc1)NC(=O)OCc1ccccc1 [Compound 2a] and answer again.
True

And then CC(C)C[C@H](NC(=O)Nc1ccc(-c2noc(-c3cccs3)n2)cc1)C(=O)N(C)N(C)C#N [Compound 4a] , what is it?
True

Record: CN(C#N)N(C)C(=O)[C@H](CC1CCCCC1)NC(=O)OCc1ccccc1 [Compound 11a]
True

Also CC(C)C[C@H](NC(=O)Nc1ccc(-c2noc(-c3cccs3)n2)cc1)C(=O)NCC#N [Compound 4c] ?
False

Repeat with CN(CC#N)C(=O)[C@H](Cc1ccccc1)NC(=O)OCc1ccccc1 [Compound 9c]
False

----------
Test: Cytotoxicity, XTT test, HUVEC
Format: cell-based
Details: human, 10 µM, % viability vs. untreated cells, read-out: Cell line viability after 72 h
Procedure: T able S4. […] Cell line viability after 72 h (%)a Inhibitor 1 µM 10 µM 1 µM 10 µM aCytotoxicity of the inhibitors towards human cell lines are expressed as % viability vs. untreated cells. Cells were treated with the indicated concentration of the compounds for 72 h and assayed by means of the XTT test (as described previously 12). Standard deviation values were within 10% of the mean of tetraplicates. […]
Values of viability at 72 h, 10 µM strictly less than 80% map to true (1), and values of at least 80% map to false (0).

Check if viability at 72 h, 10 µM falls below 80% for CN(C(=O)[C@H](Cc1ccccc1)NC(=O)OCc1ccccc1)N(C#N)CCc1ccccc1 .
true (1)

Would you mind doing CC(C)CC(NC(=O)NCc1ccccc1)C(=O)N(C)N(C)C#N (centres unmarked) as well?
false (0)

Note, next up: CN(C#N)N(C)C(=O)[C@H](CC1CCCCC1)NC(=O)OCc1ccccc1 [Compound 11a]
false (0)

Now give it for CC(C)C[C@H](NC(=O)c1ccc(-c2noc(-c3cccs3)n2)cc1)C(=O)N(C)N(C)C#N too.
true (1)

----------
molecular target: recombinant SmCB1 (Schistosoma mansoni, UniProt Q8MNY2, T185A/T300A); experiment: SmCB1 kinetic inhibition assay with fluorogenic substrate Cbz-Phe-Arg-AMC; format: biochemical; settings: slow-binding azadipeptide nitriles; substrate Cbz-Phe-Arg-AMC
I'd appreciate it if you could supply SmCB1 inhibition k2nd (second-order rate constant) values for the items below.

Request - read-out SmCB1 inhibition k2nd (second-order rate constant) | tested on recombinant SmCB1 (Schistosoma mansoni, UniProt Q8MNY2, T185A/T300A) | molecule CN(C#N)N(C)C(=O)[C@H](Cc1ccccc1)NC(=O)OCc1ccccc1
15.7 ± 1.1 10^3 M^-1 s^-1

And what about the molecule CN(C#N)N(C)C(=O)[C@H](CC1CCCCC1)NC(=O)OCc1ccccc1 [Compound 11a] ?
32.7 ± 2.8 10^3 M^-1 s^-1

CC(C)C[C@H](NC(=O)Nc1ccc(-c2noc(-c3cccs3)n2)cc1)C(=O)N(C)N(C)C#N ?
13.9 ± 2.9 10^3 M^-1 s^-1

// repeat for Cc1nc(-c2ccc(CNC(=O)N[C@@H](CC(C)C)C(=O)N(C)N(C)C#N)cc2)no1 [Compound 16a] and report
9.2 ± 0.8 10^3 M^-1 s^-1

Same question for CC(C)C[C@@H](C(=O)N(C)N(C)C#N)N(C)C(=O)c1ccc(-c2noc(-c3cccs3)n2)cc1 please.
0.5 ±0.1 10^3 M^-1 s^-1

Now this one: CC(C)C[C@H](NC(=O)NCc1ccc(-c2noc(-c3cccs3)n2)cc1)C(=O)N(C)N(C)C#N [Compound 17a]
3.1 ± 0.6 10^3 M^-1 s^-1

Now this one: CN(C(=O)[C@H](Cc1ccccc1)NC(=O)OCc1ccccc1)N(C#N)Cc1ccccc1 [Compound 10a]
1.5 ± 0.1 10^3 M^-1 s^-1
